Measured Ki accompanies every entry in the list below.
# experimental system: human kisspeptin receptor (Homo sapiens (Human), UniProt Q969F8)
# Sequence (Q969F8 whole entry): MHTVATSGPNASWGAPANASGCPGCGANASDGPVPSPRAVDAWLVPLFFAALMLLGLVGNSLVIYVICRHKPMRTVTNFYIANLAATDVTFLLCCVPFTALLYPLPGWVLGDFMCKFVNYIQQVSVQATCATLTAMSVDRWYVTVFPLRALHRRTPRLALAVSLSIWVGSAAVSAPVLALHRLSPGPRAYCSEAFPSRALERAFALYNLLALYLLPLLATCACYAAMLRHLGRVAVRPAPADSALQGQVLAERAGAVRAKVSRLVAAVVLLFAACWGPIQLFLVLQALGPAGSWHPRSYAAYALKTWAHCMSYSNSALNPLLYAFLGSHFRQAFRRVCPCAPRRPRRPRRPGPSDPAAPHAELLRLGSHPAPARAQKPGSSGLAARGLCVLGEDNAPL
# assay notes: Human KISS1R binding assay (membrane competition binding)
# cond: 90 min at room temperature; competition with 0.2 nM [125I]-metastin (45-54); Flp-In T-Rex 293 kisspeptin membranes; metal complexes nonradioactive Ga, In, Lu; read-out: hKiSSR Binding Ki (90 min)
Square brackets hold non-standard residues; d marks the D form. Peptide text beside a SMILES is read from it. * marks the point of attachment. DOTA = O=C(O)CN1CCN(CC(=O)O)CCN(CC(=O)*)CCN(CC(=O)O)CC1; Gly(N-(3-F-4-Me-benzyl)) = Cc1ccc(CNCC(=O)*)cc1F; Api(1-amidino) = N=C(N)N1CCC(N)(C(=O)O)CC1; Bip = N[C@@H](Cc1ccc(-c2ccccc2)cc1)C(=O)O; Phe(4-CN) = N#Cc1ccc(C[C@H](N)C(=O)O)cc1; 4Amb = NCc1ccc(C(=O)O)cc1; Api = NC1(C(=O)O)CCNCC1; Ahx = NCCCCCC(=O)O; azaGly = NNC(=O)O

{"columns": ["compound", "experimental system", "Ki"],
 "data": [
  ["Cc1ccc(CNCC(=O)N2CCC(NC(=O)[C@H](CC(C)C)NC(=O)NNC(=O)[C@H](Cc3ccccc3)NC(=O)[C@@H](NC(=O)[C@H](CC(N)=O)NC(=O)[C@@H](CCC(=O)O)NC(=O)c3ccc(CNC(=O)CN4CCN(CC(=O)O)CCN(CC(=O)O)CCN(CC(=O)O)CC4)cc3)[C@@H](C)O)(C(=O)N[C@@H](Cc3ccc(C#N)cc3)C(N)=O)CC2)cc1F [Compound 242] ({DOTA-4Amb}-[dE]NTF[azaGly]L[Api](Gly(N-(3-F-4-Me-benzyl)))[Phe(4-CN)]-NH2)", "human kisspeptin receptor (Homo sapiens (Human), UniProt Q969F8)", "< 10 nM"]
]}

Alright, here's another compound for you.
Reported Ki for CC(C)C[C@H](NC(=O)NNC(=O)[C@H](Cc1ccc(-c2ccccc2)cc1)NC(=O)[C@@H](NC(=O)[C@H](CC(N)=O)NC(=O)[C@@H](Cc1c[nH]c2ccccc12)NC(=O)[C@@H](Cc1ccc(O)cc1)NC(=O)CCCCCNC(=O)CN1CCN(CC(=O)O)CCN(CC(=O)O)CCN(CC(=O)O)CC1)[C@@H](C)O)C(=O)NC1(C(=O)N[C@@H](Cc2c[nH]c3ccccc23)C(N)=O)CCN(C(=N)N)CC1 [Compound 271] ({DOTA-Ahx}-[dY][dW]NT[Bip][azaGly]L[Api(1-amidino)]W-NH2) was 10 to 100 nM

* * *

Measured Ki accompanies every entry in the list below.
# experimental system: human kisspeptin receptor (Homo sapiens (Human))
# assay notes: Human KISS1R binding assay (membrane competition binding)
# cond: 90 min at room temperature; competition with 0.2 nM [125I]-metastin (45-54); Flp-In T-Rex 293 kisspeptin membranes; metal complexes nonradioactive Ga, In, Lu; read-out: hKiSSR Binding Ki (90 min)
Numbered stars: 1 amine (or outer) side, 2 acyl side, 3 side chain; on linkers, the order of the positions; unused ones are H or OH. Square brackets hold non-standard residues; d marks the D form. Peptide text beside a SMILES is read from it. * marks the point of attachment. DOTA = O=C(O)CN1CCN(CC(=O)O)CCN(CC(=O)*)CCN(CC(=O)O)CC1; Gly(N-(3-F-4-Me-benzyl)) = Cc1ccc(CNCC(=O)*)cc1F; Phe(3-F) = N[C@@H](Cc1cccc(F)c1)C(=O)O; X1 = O=C(CN1CCC(N[*:1])CC1)[*:2]; Api = NC1(C(=O)O)CCNCC1; azaGly = NNC(=O)O

Example compounds with recorded Ki:
{"columns": ["compound", "endpoint name", "observed measurement"],
 "data": [
  ["Cc1ccc(CNCC(=O)N2CCC(NC(=O)[C@H](CC(C)C)NC(=O)NNC(=O)[C@H](Cc3cccc(F)c3)NC(=O)[C@@H](NC(=O)[C@H](CC(N)=O)NC(=O)[C@H](CCCCN)NC(=O)CN3CCC(NC(=O)CN4CCN(CC(=O)O)CCN(CC(=O)O)CCN(CC(=O)O)CC4)CC3)[C@@H](C)O)(C(=O)N[C@@H](Cc3c[nH]c4ccccc34)C(N)=O)CC2)cc1F [Compound 164] ({DOTA}-[X1]KNT[Phe(3-F)][azaGly]L[Api](Gly(N-(3-F-4-Me-benzyl)))W-NH2)", "Ki", "< 10 nM"],
  ["Cc1ccc(CNCC(=O)N2CCC(NC(=O)c3ccc(-c4ccccc4)c(OCCNC(=O)[C@H](Cc4ccccc4)NC(=O)CN4CCC(NC(=O)CN5CCN(CC(=O)O)CCN(CC(=O)O)CCN(CC(=O)O)CC5)CC4)c3)(C(=O)N[C@@H](Cc3c[nH]c4ccccc34)C(N)=O)CC2)cc1F", "Ki", "< 10 nM"]
]}

Reported Ki for Cc1ccc(CNCC(=O)N2CCC(NC(=O)[C@H](CC(C)C)NC(=O)NNC(=O)[C@H](Cc3ccccc3)NC(=O)[C@@H](NC(=O)[C@H](CC(N)=O)NC(=O)[C@@H](Cc3c[nH]c4ccccc34)NC(=O)[C@@H](Cc3c[nH]cn3)NC(=O)[C@@H](Cc3ccc(O)cc3)NC(=O)CN3CCC(NC(=O)CN4CCN(CC(=O)O)CCN(CC(=O)O)CCN(CC(=O)O)CC4)CC3)[C@@H](C)O)(C(=O)N[C@@H](Cc3c[nH]c4ccccc34)C(N)=O)CC2)cc1F [Compound 33] ({DOTA}-[X1][dY][dH][dW]NTF[azaGly]L[Api](Gly(N-(3-F-4-Me-benzyl)))W-NH2) was < 10 nM
